System: large crabgrass
ASSAY_EXPLANATION: Test B pre-/postemergence herbicide test
Format: in vivo, Digitaria sanguinalis
TEST_CONDITIONS: 125 g ai/ha; visual rating, scale 0 (no effect) to 100 (complete control); postemergence
Crabgrass, Large plant response rating listing for selected compounds.
Note: the reply should be a number with no unit written.

Use these answered entries as a reference point.
{"COMPOUND": "C#CCNC(=O)c1cccc(NC(=O)c2cc(C(C)(C)C)nn2C)n1", "MEAS_VALUE": 10}
{"COMPOUND": "CCN1N=C(C(C)(C)C)CC1C(=O)Nc1cc(C(=O)N2CCCC2)ccc1F (racemic)", "MEAS_VALUE": 0}
{"COMPOUND": "COC(=O)c1cccc(NC(=O)c2cc(C(C)(C)C)nn2C)n1", "MEAS_VALUE": 0}
{"COMPOUND": "CCC1=NN(C(C)(C)C)CC1C(=O)Nc1cc(C(=O)N2CCCC2)ccc1F (racemic)", "MEAS_VALUE": 10}
{"COMPOUND": "CCc1nn(C2CCCC2)nc1C(=O)Nc1cccc(C(=O)N(C)C)c1", "MEAS_VALUE": 10}
{"COMPOUND": "C#CCNC(=O)c1cccc(NC(=O)c2nn(C(C)(C)C)nc2CC)c1", "MEAS_VALUE": 0}
{"COMPOUND": "C=CCN(CC=C)C(=O)c1cccc(NC(=O)c2nn(C(C)C)nc2CC)c1", "MEAS_VALUE": 10}
{"COMPOUND": "Cc1nn(C(C)(C)C)nc1C(=O)Nc1cccc(C(=O)N(C)C)c1", "MEAS_VALUE": 10}
{"COMPOUND": "CCNC(=O)c1ccc(F)c(N(C(C)=O)C(=O)c2cc(C(C)(C)C)nn2CC)c1", "MEAS_VALUE": 20}
{"COMPOUND": "CCc1cn(C(C)(C)C)nc1C(=O)Nc1cccc(C(=O)N(C)C)n1", "MEAS_VALUE": 0}

Query: Crabgrass, Large plant response rating; subject: CCc1nn(C(C)(C)CC)nc1C(=O)Nc1cccc(C(=O)N2CC=CC2)c1 10

Query: Crabgrass, Large plant response rating; subject: CCc1nn(C(C)C)nc1C(=O)Nc1cccc(C(=O)N2CC=CC2)c1 10

----------
Test system: velvetleaf
ASSAY_EXPLANATION: Test C pre-/postemergence herbicide test
Format: in vivo, Abutilon theophrasti
TEST_CONDITIONS: 250 g ai/ha; scale 0-100; preemergence
ENDPOINT: Plant response rating, Velvetleaf
Note: the reply should be a number with no unit written.

Use these answered entries as a reference point.
{"COMPOUND": "CCn1nc(C(C)(C)C)cc1C(=O)Nc1cncc(C(=O)N(C)C)n1", "Plant response rating, Velvetleaf": 100}
{"COMPOUND": "CCC1=NN(C(C)(C)C)CC1C(=O)Nc1cc(C(=O)N(C)CC)ccc1F (racemic)", "Plant response rating, Velvetleaf": 100}
{"COMPOUND": "CCC1=NN(C(C)(C)C)CC1C(=O)Nc1cc(C(=O)N2CCCC2)ccc1F (racemic)", "Plant response rating, Velvetleaf": 100}

Moving on to another compound below.
Query: Plant response rating, Velvetleaf; subject: CCN1N=C(C(C)(C)C)CC1C(=O)Nc1cc(C(=O)N2CCCC2)ccc1F (racemic) 75
